# assayedSystem: rat MCH1 receptor (Rattus norvegicus, UniProt P97639)
# Construct: expressed in transfected cells
# Sequence (P97639 whole entry): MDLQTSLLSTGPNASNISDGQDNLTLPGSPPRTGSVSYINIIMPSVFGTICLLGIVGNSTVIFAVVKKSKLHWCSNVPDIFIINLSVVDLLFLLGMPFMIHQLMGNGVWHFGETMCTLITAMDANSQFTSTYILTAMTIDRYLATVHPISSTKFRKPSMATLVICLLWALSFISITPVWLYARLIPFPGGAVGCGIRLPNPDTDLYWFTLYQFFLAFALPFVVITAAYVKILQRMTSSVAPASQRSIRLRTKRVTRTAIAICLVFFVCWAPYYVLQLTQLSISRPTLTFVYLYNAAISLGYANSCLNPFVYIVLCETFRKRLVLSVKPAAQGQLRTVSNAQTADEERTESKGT
# procedureText: Binding affinity (Ki) at the rat MCH1 receptor
# runConditions: Examples 142-153; read-out: Ki (nM) rMCH1
Lab note: cut-off is 3 nM. Strictly less in Ki is fulfilled. Exactly 3 nM or more is not fulfilled.

[Q] Dear reviewer, please state whether `Cc1ccc(NC(=O)C(C)C)cc1C1CCN(Cc2ccc(Oc3ccc(F)c(F)c3)cc2)CC1` has Ki strictly beneath 3 nM.
[A] fulfilled

[Q] Dear reviewer, please state whether `CC(=O)c1cccc(O[C@H](CCN2CCC(c3cccc(NC(=O)C(C)C)c3)CC2)c2ccccc2)c1` has Ki strictly beneath 3 nM.
[A] not fulfilled

[Q] Dear reviewer, please state whether `CC(C)C(=O)Nc1cccc(C2CCN(Cc3ccc(Oc4ccc(Cl)cc4)cc3)CC2)c1` has Ki strictly beneath 3 nM.
[A] not fulfilled

[Q] Dear reviewer, please state whether `CCC(=O)N[C@@H](CCN1CCC(c2cccc(NC(=O)C(C)C)c2)CC1)c1ccccc1` has Ki strictly beneath 3 nM.
[A] not fulfilled

[Q] Dear reviewer, please state whether `Cc1ccc(-n2cc(CN3CCC(c4cccc(NC(=O)C(C)C)c4)CC3)c3ccccc32)cc1` has Ki strictly beneath 3 nM.
[A] not fulfilled

---

# assayedSystem: rat MCH1 receptor (Rattus norvegicus)
# Construct: expressed in transfected cells
# procedureText: Binding affinity (Ki) at the rat MCH1 receptor
# runConditions: read-out: rMCH1 Ki; Table 3c
measuredParameter: pKi
pKi here: minus log base 10 of the concentration, concentration in moles per litre.

Recorded result, `CC(C)C(=O)Nc1cccc(C2CCN(CC[C@@H](Oc3ccccc3)c3ccccc3)CC2)c1` , pKi: 7.65

Recorded result, `CC(C)C(=O)Nc1cccc(C2CCN(CC[C@H](Oc3ccccc3)c3ccccc3)CC2)c1` , pKi: 8.15

---

What pKi was measured for each of the following?
# assayedSystem: human NPY1 receptor (Homo sapiens, UniProt P25929)
# Construct: expressed in transfected cells
# Sequence (P25929 1-384): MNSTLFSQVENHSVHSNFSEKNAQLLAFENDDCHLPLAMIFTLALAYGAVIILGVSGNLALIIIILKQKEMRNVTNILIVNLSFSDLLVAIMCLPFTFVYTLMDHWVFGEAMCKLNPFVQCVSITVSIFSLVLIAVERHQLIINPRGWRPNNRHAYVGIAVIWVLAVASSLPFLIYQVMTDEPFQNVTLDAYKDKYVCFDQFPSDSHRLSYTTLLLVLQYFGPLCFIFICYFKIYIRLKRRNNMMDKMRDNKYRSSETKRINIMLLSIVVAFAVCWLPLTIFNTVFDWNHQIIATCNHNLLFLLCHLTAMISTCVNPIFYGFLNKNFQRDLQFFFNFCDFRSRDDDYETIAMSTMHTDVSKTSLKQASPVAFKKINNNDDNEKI
# procedureText: Binding affinity at the human NPY1 receptor
# runConditions: read-out: hNPY1 Ki; Table 3b
pKi: −log10 of the molar value. Counter-ions that a name gives are not always drawn.

Recorded result, COC(=O)C1=C(C)NC(=O)N(C(=O)NCCCN2CCC3(CC2)OCc2ccccc23)C1c1ccc2nonc2c1 (single isomer, unassigned) [Example 18, HYDROCHLORIDE] , pKi: < 4.30

Recorded result, `O=C(CCCN1CCC(O)(c2ccc(Cl)cc2)CC1)c1ccc(Cl)cc1` , pKi: < 4.30
